Target: Cytochrome P450 2C19 (Homo sapiens) (UniProt P33261)
Sequence (P33261 whole entry, looked up): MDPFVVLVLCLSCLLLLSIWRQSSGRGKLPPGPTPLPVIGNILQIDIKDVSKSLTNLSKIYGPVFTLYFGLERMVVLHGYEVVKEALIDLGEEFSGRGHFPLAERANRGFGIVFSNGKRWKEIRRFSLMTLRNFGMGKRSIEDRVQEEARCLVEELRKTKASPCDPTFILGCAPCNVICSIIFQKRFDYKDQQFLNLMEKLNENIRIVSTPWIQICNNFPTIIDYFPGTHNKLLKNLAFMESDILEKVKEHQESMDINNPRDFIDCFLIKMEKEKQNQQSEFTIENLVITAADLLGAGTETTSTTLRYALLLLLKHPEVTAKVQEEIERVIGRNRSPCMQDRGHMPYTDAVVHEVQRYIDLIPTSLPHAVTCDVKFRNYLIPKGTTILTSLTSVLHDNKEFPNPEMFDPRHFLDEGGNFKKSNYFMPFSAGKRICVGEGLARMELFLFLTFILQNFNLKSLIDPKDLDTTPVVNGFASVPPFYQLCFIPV
Experiment: Cytochrome panel assay with activity outcomes
Details: recombinant CYP, pro-luciferin dealkylation, luminescence, p450-cyp2c19; series mostly up to 57.1 µM
Protocol: The P450 gene superfamily is involved in the metabolism and clearance of xenobiotics. This assay used various human CYP P450 isozymes to measure the dealkylation of various pro-luciferin substrates to luciferin. The luciferin is then measured by luminescence after the addition of a luciferase detection reagent. […] Inhibitors and some substrates limit the production of luciferin, and decrease measured luminescence. […] 8, Detection, 1 sec, ViewLux luminescent read […]
Out of some 16,000 compounds screened, about 5,800 (36%) were called active. About 23% were inconclusive and are not listed. Calls follow the shape of the dose curve; as a rule, active = well fitted curve in the direction sought with a large enough effect; inconclusive = small, poorly fitted or top-dose-only effect, or effect the other way; inactive = no such curve, though single readings can be large or run the other way. The list shows a part of the results.
Bench note: report the call from y for active, n for inactive

Query block: Hi, sorry to bother you, what did the test record for CCOC(=O)C1CCN(c2c(NCc3ccc(C(=O)NCCC(C)C)cc3)c(=O)c2=O)CC1 ?
Result block: y

Query block: I'd appreciate the recorded outcome for FC(F)(F)c1ccccc1-c1nccc(NCc2cccs2)n1 from this test.
Result block: y

Query block: // return assay outcome for COCCNc1ccnc(-c2ccccc2C(F)(F)F)n1
Result block: y

Query block: Query: recorded result category for COCCNc1ccnc(-c2ccccc2CN(C)C)n1 in this test
Result block: n
